# Test system: Mus musculus
# assay.overview: Percent change in locomotor activity in mice at 3 mg/kg i.p. in 4 h.
# Type: functional
# setup.conditions: route intraperitoneal

# molecule, Change (%)
measured = [
    ("COc1ccc(-c2cc(C3C(c4ccc(C)cc4)CC4CCC3N4C)on2)cc1 (stereo not drawn)", 30),
    ("Cc1ccc(-c2cc(C3C(c4ccc(C)cc4)CC4CCC3N4C)on2)cc1 (stereo not drawn)", 29),
    ("CN1C2CCC1C(c1cc(C(C)(C)C)no1)C(c1ccc(Cl)cc1)C2 (stereo not drawn)", -29),
    ("Cc1ccc(C2CC3CCC(C2c2cc(C(C)C)no2)N3C)cc1 (stereo not drawn)", 70),
    ("Cc1ccc(C2CC3CCC(C2c2cc(C)no2)N3C)cc1 (stereo not drawn)", 221),
    ("CN1C2CCC1C(c1ccno1)C(c1ccc(Cl)cc1)C2 (stereo not drawn)", -71),
    ("COc1ccc(-c2cc(C3C(c4ccc(Cl)cc4)CC4CCC3N4C)on2)cc1 (stereo not drawn)", 335),
    ("Cc1ccc(C2CC3CCC(C2c2cc(-c4ccc(Cl)cc4)no2)N3C)cc1 (stereo not drawn)", -1),
]

----------
# measured.on: Norepinephrine transporter (Rattus norvegicus, UniProt Q9WTR4)
# Sequence (Q9WTR4 whole entry): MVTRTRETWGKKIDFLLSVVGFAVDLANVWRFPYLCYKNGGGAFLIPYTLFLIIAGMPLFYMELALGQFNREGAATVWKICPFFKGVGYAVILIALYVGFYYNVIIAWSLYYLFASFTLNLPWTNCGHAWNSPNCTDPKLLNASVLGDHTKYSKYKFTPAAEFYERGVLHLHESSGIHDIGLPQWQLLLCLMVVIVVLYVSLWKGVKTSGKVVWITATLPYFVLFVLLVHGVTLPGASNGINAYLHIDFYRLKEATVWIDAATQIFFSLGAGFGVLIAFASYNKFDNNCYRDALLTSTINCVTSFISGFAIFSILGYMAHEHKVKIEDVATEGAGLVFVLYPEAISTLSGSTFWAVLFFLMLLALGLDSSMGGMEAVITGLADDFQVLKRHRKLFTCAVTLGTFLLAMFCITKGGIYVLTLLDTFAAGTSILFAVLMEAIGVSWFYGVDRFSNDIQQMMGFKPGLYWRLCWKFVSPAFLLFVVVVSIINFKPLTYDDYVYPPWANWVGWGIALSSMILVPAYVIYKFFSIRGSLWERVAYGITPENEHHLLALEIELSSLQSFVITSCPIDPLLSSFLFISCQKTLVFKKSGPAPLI
# assay.overview: Inhibition of norepinephrine transporter (NET) determined using [3H]nisoxetine radioligand.
pIC50: −log10 of the molar value.

# molecule, pIC50
rows = [
    ("Cc1ccc(C2CC3CCC(C2c2cc(-c4ccc(F)cc4)no2)N3C)cc1 (stereo not drawn)", 6.04),
    ("CC(C)c1cc(C2C(c3ccc(Cl)cc3)CC3CCC2N3C)on1 (stereo not drawn)", 6.02),
    ("COc1ccc(-c2cc(C3C(c4ccc(C)cc4)CC4CCC3N4C)on2)cc1 (stereo not drawn)", 6.12),
]

----------
# measured.on: Sodium-dependent serotonin transporter (Rattus norvegicus, UniProt P31652)
# Sequence (P31652 whole entry): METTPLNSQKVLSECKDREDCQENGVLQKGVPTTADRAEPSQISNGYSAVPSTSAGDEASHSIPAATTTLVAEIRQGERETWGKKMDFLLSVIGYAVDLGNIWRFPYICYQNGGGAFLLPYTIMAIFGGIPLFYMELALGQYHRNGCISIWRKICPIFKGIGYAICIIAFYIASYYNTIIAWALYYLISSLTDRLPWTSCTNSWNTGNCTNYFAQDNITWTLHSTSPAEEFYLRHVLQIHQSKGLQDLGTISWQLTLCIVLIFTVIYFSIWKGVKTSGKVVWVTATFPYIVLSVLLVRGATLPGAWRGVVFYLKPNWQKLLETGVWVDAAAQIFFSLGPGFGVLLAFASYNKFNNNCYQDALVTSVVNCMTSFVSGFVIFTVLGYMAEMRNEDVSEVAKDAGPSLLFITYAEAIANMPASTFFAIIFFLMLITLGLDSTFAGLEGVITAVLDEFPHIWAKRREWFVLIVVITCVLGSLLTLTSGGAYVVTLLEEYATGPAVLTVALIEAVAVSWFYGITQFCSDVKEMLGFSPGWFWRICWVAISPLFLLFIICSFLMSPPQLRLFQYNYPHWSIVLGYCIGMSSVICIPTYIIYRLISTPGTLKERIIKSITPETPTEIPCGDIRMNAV
Sorting guide: entries reporting IC50 beneath 0.6 µM go in the label 1 pile, the rest go in the label 0 pile.

# compound, measured.on, discrete.label
measured = [
    ("CN1C2CC[C@@H]1C[C@H](c1ccc(Cl)cc1)C2c1cc(-c2ccccc2)no1 (some centres not stated)", "Sodium-dependent serotonin transporter (Rattus norvegicus, UniProt P31652)", "label 1"),
    ("Cc1ccc(C2CC3CCC(C2c2cc(C(C)(C)C)no2)N3C)cc1 (configuration not stated)", "Sodium-dependent serotonin transporter (Rattus norvegicus, UniProt P31652)", "label 0"),
    ("CCc1cc(C2C(c3ccc(Cl)cc3)CC3CCC2N3C)on1 (configuration not stated)", "Sodium-dependent serotonin transporter (Rattus norvegicus, UniProt P31652)", "label 0"),
    ("Cc1ccc(-c2cc(C3C(c4ccc(C)cc4)CC4CCC3N4C)on2)cc1 (configuration not stated)", "Sodium-dependent serotonin transporter (Rattus norvegicus, UniProt P31652)", "label 0"),
    ("Cc1ccc(-c2cc(C3C(c4ccc(Cl)cc4)CC4CCC3N4C)on2)cc1 (configuration not stated)", "Sodium-dependent serotonin transporter (Rattus norvegicus, UniProt P31652)", "label 0"),
    ("Cc1ccc(C2CC3CCC(C2c2cc(-c4ccc(Cl)cc4)no2)N3C)cc1 (configuration not stated)", "Sodium-dependent serotonin transporter (Rattus norvegicus, UniProt P31652)", "label 0"),
    ("Cc1cc(C2C(c3ccc(Cl)cc3)CC3CCC2N3C)on1 (configuration not stated)", "Sodium-dependent serotonin transporter (Rattus norvegicus, UniProt P31652)", "label 1"),
]
